Target: crude AaBGL1 (Aspergillus aculeatus, UniProt P48825)
Sequence (P48825 20-860): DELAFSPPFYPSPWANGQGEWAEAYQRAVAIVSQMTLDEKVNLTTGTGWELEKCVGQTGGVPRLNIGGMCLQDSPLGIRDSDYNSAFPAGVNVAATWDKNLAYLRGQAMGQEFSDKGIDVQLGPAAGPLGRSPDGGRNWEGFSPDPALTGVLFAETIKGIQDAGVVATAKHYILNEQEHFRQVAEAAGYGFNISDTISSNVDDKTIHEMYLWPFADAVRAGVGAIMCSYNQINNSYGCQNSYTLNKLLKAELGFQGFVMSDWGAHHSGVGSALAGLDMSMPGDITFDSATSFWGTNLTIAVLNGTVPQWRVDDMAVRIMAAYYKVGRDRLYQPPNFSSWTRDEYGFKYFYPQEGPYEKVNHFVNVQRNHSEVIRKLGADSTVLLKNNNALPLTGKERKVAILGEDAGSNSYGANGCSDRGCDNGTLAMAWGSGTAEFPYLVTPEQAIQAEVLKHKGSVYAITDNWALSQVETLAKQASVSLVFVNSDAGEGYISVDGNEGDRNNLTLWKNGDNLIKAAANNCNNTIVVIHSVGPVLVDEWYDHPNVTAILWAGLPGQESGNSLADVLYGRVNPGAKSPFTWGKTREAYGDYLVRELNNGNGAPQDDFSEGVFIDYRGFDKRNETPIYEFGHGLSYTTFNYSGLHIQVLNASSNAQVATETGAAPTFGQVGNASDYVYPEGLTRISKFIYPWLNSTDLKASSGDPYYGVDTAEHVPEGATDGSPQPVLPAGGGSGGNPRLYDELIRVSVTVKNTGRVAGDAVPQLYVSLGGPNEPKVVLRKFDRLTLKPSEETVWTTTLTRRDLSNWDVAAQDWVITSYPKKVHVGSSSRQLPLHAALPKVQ
Assay: Inhibition by various sugar
Type: biochemical
Design: P3 secretion signal (N, cleaved yes); made in house; culture supernatant, ammonium sulfate treatment and ultrafiltration, crude enzyme
Conditions: sugar concentration 0.1 mM, 1 mM pNPG
MEASURED PROPERTY: ratio of enzymatic activity to activity without sugar (%)

OC[C@@H](O)[C@@H](O)[C@H](O)[C@@H](O)CO [Sorbitol]    98
O=C[C@H](O)[C@@H](O)[C@@H](O)[C@H](O)CO [Galactose]    97
OC[C@H]1O[C@@](CO)(O[C@H]2O[C@H](CO)[C@@H](O)[C@H](O)[C@H]2O)[C@@H](O)[C@@H]1O [Sucrose]    96
O=C[C@H](O)[C@@H](O)[C@H](O)CO [Xylose]    98
OC[C@H]1O[C@@H](O[C@H]2[C@H](O)[C@@H](O)C(O)O[C@@H]2CO)[C@H](O)[C@@H](O)[C@H]1O (stereo partly shown) [Lactose]    99
O=C(CO)[C@@H](O)[C@H](O)[C@H](O)CO [Fructose]    99
OC[C@H]1O[C@H](O[C@H]2[C@H](O)[C@@H](O)[C@H](O)O[C@@H]2CO)[C@H](O)[C@@H](O)[C@@H]1O [Maltose]    99

----------
Molecular target: crude AaBGL1 (Aspergillus aculeatus)
Assay: Inhibition by various sugar
Format: biochemical
Parameters: P3 secretion signal (N, cleaved yes); made in house; culture supernatant, ammonium sulfate treatment and ultrafiltration, crude enzyme
Conditions: sugar concentration 10 mM, 1 mM pNPG
Quick reference for ratio of enzymatic activity to activity without sugar among some molecules
MEASURED PROPERTY: ratio of enzymatic activity to activity without sugar (%)

O=C[C@H](O)[C@@H](O)[C@@H](O)[C@H](O)CO    101
OC[C@H]1O[C@H](O[C@H]2[C@H](O)[C@@H](O)[C@H](O)O[C@@H]2CO)[C@H](O)[C@@H](O)[C@@H]1O    68
O=C(CO)[C@@H](O)[C@H](O)[C@H](O)CO    115
OC[C@H]1O[C@@](CO)(O[C@H]2O[C@H](CO)[C@@H](O)[C@H](O)[C@H]2O)[C@@H](O)[C@@H]1O    98

----------
Target: crude AaBGL1 (Aspergillus aculeatus)
Assay: Inhibition by various sugar
Type: biochemical
Set-up: P3 secretion signal (N, cleaved yes); made in house; culture supernatant, ammonium sulfate treatment and ultrafiltration, crude enzyme
Conditions: sugar concentration 10 mM, 1 mM pNPG
MEASURED PROPERTY: ratio of enzymatic activity to activity without sugar (%)

OC[C@@H](O)[C@@H](O)[C@H](O)[C@@H](O)CO [Sorbitol]    101
O=C[C@H](O)[C@@H](O)[C@H](O)CO [Xylose]    100
OC[C@H]1O[C@@H](O[C@H]2[C@H](O)[C@@H](O)C(O)O[C@@H]2CO)[C@H](O)[C@@H](O)[C@H]1O (stereo partly drawn) [Lactose]    100

----------
Measured ratio of enzymatic activity to activity without sugar of individual entries
Target: crude AaBGL1 (Aspergillus aculeatus, UniProt P48825)
Assay: Inhibition by various sugar
Format: biochemical
Set-up: P3 secretion signal (N, cleaved yes); made in house; culture supernatant, ammonium sulfate treatment and ultrafiltration, crude enzyme
Conditions: sugar concentration 1.0 mM, 1 mM pNPG
MEASURED PROPERTY: ratio of enzymatic activity to activity without sugar (%)

OC[C@H]1O[C@@H](O[C@H]2[C@H](O)[C@@H](O)C(O)O[C@@H]2CO)[C@H](O)[C@@H](O)[C@H]1O (stereo partly shown)    100
OC[C@H]1O[C@@](CO)(O[C@H]2O[C@H](CO)[C@@H](O)[C@H](O)[C@H]2O)[C@@H](O)[C@@H]1O    99
OC[C@H]1O[C@H](O[C@H]2[C@H](O)[C@@H](O)[C@H](O)O[C@@H]2CO)[C@H](O)[C@@H](O)[C@@H]1O    93
O=C[C@H](O)[C@@H](O)[C@@H](O)[C@H](O)CO    98
O=C(CO)[C@@H](O)[C@H](O)[C@H](O)CO    106
OC[C@@H](O)[C@@H](O)[C@H](O)[C@@H](O)CO    99
O=C[C@H](O)[C@@H](O)[C@H](O)CO    99
